Target: T1, full length human DLL4 (human, UniProt Q9NR61 27-685)
T1 construct: whole, on cells; also called native DLL4 expressed in HEK293 cells
T1 sequence (Q9NR61 27-685): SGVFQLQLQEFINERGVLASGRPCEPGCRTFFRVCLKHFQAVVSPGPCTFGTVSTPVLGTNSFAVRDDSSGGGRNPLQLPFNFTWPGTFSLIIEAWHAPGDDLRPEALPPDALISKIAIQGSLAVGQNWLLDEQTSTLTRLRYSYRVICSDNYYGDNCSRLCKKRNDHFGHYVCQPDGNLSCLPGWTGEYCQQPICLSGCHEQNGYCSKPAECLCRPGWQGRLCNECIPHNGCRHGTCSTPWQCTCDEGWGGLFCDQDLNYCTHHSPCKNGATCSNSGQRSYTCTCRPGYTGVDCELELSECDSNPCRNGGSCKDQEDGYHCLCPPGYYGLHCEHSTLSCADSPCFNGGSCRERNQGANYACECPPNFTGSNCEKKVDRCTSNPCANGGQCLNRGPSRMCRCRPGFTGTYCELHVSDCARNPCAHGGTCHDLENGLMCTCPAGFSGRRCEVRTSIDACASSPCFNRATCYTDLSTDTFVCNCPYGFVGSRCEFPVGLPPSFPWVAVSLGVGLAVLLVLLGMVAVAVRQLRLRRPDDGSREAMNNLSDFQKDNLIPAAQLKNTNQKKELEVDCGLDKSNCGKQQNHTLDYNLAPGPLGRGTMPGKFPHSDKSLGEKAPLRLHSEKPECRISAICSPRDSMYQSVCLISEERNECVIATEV
Test: FMAT competition, purified antibody vs Alexa-647 human Notch1/Fc, 293T cells with human DLL4
Can you tell me % inhibition at 0.070 nM for the items I'm about to list?
Record the value in %, omitting the unit from your answer.

// 4B4 (antibody, IgG4, V domains shown, Fully human; used for IgG4 rows and where no isotype is printed; also called 4B4 IgG4; 4B4.1) VH: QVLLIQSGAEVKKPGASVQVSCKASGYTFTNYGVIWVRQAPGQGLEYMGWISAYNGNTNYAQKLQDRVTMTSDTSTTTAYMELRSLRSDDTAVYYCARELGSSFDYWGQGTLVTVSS VL: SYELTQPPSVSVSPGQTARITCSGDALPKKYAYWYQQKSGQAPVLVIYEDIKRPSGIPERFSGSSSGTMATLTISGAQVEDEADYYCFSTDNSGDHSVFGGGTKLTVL : % inhibition at 0.070 nM value = 21

// 20G8 (antibody, IgG4, V domains shown, Fully human; also used where no isotype is printed) VH: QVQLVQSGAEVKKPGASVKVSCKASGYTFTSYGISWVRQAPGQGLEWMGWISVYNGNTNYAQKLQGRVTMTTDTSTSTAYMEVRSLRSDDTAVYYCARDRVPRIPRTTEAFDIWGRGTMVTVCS VL: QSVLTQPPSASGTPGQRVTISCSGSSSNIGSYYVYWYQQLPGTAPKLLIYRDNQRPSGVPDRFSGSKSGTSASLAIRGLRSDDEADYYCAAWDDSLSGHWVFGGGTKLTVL : % inhibition at 0.070 nM value = 3

// 9G8 (antibody, IgG4, V domains shown, Fully human; used for IgG4 rows and where no isotype is printed; also called 9G8 IgG4) VH: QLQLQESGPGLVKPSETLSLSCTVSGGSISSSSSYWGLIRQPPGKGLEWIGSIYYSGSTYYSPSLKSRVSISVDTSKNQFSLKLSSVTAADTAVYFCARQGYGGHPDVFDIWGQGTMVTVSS VL: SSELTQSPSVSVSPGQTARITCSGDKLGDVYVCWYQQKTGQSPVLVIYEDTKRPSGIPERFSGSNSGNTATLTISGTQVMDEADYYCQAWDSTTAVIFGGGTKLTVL : % inhibition at 0.070 nM value = 14

// 21H3 (antibody, IgG4, V domains shown, Fully human; used for IgG4 rows and where no isotype is printed; also called 21H3 IgG4) VH: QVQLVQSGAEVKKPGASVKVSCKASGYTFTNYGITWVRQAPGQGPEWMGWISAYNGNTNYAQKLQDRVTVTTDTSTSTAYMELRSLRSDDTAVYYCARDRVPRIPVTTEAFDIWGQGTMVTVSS VL: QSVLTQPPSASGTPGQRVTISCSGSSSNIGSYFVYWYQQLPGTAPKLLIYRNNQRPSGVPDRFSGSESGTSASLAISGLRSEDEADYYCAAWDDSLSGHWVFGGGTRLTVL : % inhibition at 0.070 nM value = -2

// 17F3 (antibody, IgG2, V domains shown, Fully human; also used where no isotype is printed) VH: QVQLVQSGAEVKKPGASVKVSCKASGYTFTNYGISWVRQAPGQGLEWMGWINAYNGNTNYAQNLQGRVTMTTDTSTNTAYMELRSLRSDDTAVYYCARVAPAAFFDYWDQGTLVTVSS VL: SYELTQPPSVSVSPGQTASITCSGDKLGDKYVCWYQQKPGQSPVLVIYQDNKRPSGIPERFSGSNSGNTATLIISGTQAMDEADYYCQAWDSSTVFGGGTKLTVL : % inhibition at 0.070 nM value = 25
